Biological target: isolated recombinant JAK1 kinase domain (Homo sapiens (Human), UniProt P23458)
Sequence (P23458 875-1153): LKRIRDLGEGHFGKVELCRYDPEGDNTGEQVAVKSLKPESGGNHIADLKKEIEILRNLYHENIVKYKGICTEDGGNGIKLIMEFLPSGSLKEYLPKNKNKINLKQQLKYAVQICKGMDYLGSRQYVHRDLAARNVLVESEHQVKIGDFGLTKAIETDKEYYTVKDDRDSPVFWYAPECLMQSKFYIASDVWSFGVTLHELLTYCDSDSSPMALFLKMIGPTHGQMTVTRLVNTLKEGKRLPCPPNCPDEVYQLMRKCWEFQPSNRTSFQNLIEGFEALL
Experiment: JAK1 enzyme assay (Caliper LabChip, peptide phosphorylation)
Type: biochemical
Details: isolated recombinant JAK1 kinase domain, 25 μM ATP
Ki overview
Unit nM implied. Number only.

A selection of reference data follows.
What Ki value was documented for this compound, COC(=O)CCN(C)C1CCN(C(=O)Cn2cc(NC(=O)c3cnn4cccnc34)c(-c3cc(Cl)ccc3OC(F)F)n2)CC1 ?
0.59

Entry to check: NC(=O)CCCN1CCC(n2cc(NC(=O)c3cnn4cccnc34)c(-c3cc(Cl)ccc3OC(F)F)n2)CC1
1.67

Entry to check: NC1CCN(C(=O)Cn2cc(NC(=O)c3cnn4cccnc34)c(-c3cc(Cl)ccc3OC(F)F)n2)CC1
0.58

For the next question, use this compound.
What Ki value was documented for this compound, Nc1nn2cccnc2c1C(=O)Nc1cn(C2CCN(CCCN3CCNC3=O)CC2)nc1-c1cc(Cl)ccc1OC(F)F ?
0.69

---

Ki overview
Target: isolated recombinant JAK1 kinase domain (Homo sapiens (Human), UniProt P23458)
Experiment: JAK1 enzyme assay (Caliper LabChip, peptide phosphorylation)
Type: biochemical
Details: isolated recombinant JAK1 kinase domain, 25 μM ATP
Unit nM implied. Number only.

A selection of reference data follows.
What Ki value was documented for this compound, O=C(Nc1cn(CC(=O)N2C[C@H]3CN(CC4CCC(F)(F)CC4)C[C@H]3C2)nc1-c1cc(Cl)ccc1OC(F)F)c1cnn2cccnc12 ?
0.66

Entry to check: CC1CN(C(=O)Cn2cc(NC(=O)c3cnn4cccnc34)c(-c3cc(Cl)ccc3OC(F)F)n2)CCN1C (stereo not drawn)
0.66

Entry to check: O=C(Nc1cn([C@H]2CCNC[C@@H]2O)nc1-c1cc(Cl)ccc1OC(F)F)c1cnn2cccnc12
3.85

Others:
What Ki value was documented for this compound, CN1CC[C@H](n2cc(NC(=O)c3c(N)nn4cccnc34)c(-c3cc(Cl)ccc3OC(F)F)n2)C1 ?
0.49

Entry to check: CCOC(=O)N1CCC(CN2C[C@@H]3CN(C(=O)Cn4cc(NC(=O)c5cnn6cccnc56)c(-c5cc(Cl)ccc5OC(F)F)n4)C[C@@H]3C2)CC1
0.7

Entry to check: Nc1nn2cccnc2c1C(=O)Nc1cn(C2CCN(CCCN3CCCC3=O)CC2)nc1-c1cc(Cl)ccc1OC(F)F
0.45

---

EC50 overview
Test system: JAK1-dependent STAT6 phosphorylation downstream of IL-13 stimulation in BEAS-2B human bronchial epithelial cells
Experiment: JAK1 pathway assay in BEAS-2B cells (IL-13-pSTAT6, MSD)
Type: cell-based
Details: read-out: IL13-pSTAT6 EC50 (uM)_BEAS-2B
Protocol: JAK1 Pathway Assay in Cell Lines was Carried Out as Follows: Inhibitor potency (EC50) was determined in cell-based assays designed to measure JAK1 dependent STAT phosphorylation. […] Test compounds were serially diluted 1:2 in DMSO and then diluted 1:50 in medium just before use. […] Then, cells were stimulated with human recombinant cytokine at their respective EC90 concentrations, as previously determined for each individual lot. […]
Unit µM implied. Number only.

A selection of reference data follows.
What EC50 value was documented for this compound, O=C(Nc1cn(CC(=O)N2CCC(C(=O)N3CCNCC3)CC2)nc1-c1cc(Cl)ccc1OC(F)F)c1cnn2cccnc12 ?
0.121

Entry to check: CN(C1CCN(C(=O)Cn2cc(NC(=O)c3cnn4cccnc34)c(-c3cc(Cl)ccc3OC(F)F)n2)CC1)C1(C#N)CC1
0.0029

For the next question, use this compound.
What EC50 value was documented for this compound, N#CC1CCN(C2CCN(C(=O)Cn3cc(NC(=O)c4cnn5cccnc45)c(-c4cc(Cl)ccc4OC(F)F)n3)CC2)C1 (stereo not drawn) ?
0.0196
